target: UniProtKB Q16654; test: Inhibition of human PDHK4 co-complexed with porcine PDH using sodium pyruvate, coenzymeA and NAD as substrate preincubated with enzyme complex for 45 mins followed by ATP addition and then later incubated with substrate for 90 mins by absorption spectrophotometric assay
Sequence (Q16654 whole entry): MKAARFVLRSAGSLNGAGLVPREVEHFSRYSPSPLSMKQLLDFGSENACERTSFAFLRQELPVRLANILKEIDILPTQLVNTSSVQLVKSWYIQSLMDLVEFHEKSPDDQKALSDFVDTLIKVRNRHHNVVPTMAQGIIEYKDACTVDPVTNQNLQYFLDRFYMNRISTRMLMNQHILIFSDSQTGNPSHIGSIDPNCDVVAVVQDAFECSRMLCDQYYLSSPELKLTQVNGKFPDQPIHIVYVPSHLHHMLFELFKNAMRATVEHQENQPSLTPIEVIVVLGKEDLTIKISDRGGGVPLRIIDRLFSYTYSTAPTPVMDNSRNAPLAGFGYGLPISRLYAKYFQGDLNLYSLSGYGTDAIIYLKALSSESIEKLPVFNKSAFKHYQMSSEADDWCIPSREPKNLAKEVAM
pIC50: −log10 of the molar value.
testReadout: pIC50

In [3]: df
Out[3]:
                         smilesdata  result
0  CNC(=O)c1[nH]c2nc(C)nc(Cl)c2c1Br  < 4.52
1          CC1(C)C(=O)Nc2c(N)cccc21  < 3.52
2           CCc1cccc2c1NC(=O)C2(C)C  < 3.52
3     c1cnc2[nH]c3c(C4CC4)cccc3c2c1  < 3.52
4           CCCc1[nH]c2nc(C)ncc2c1C  < 4.52
